Hello, the source for this data is paper PMC4749168, in case you need it.

# TESTED_ON: WT-CFTR (Homo sapiens, UniProt P13569)
# Construct: expressed in transfected cells; host or cells: Fisher rat thyroid (FRT) cells, co-expressing halide sensor YFP-H148Q/I152L; provided by Dr. Alan Verkman
# EXPERIMENTAL_DETAILS: Halide-sensitive YFP microplate reader assay of CFTR potentiation, WT-CFTR
# Format: cell-based
# CONDITIONS_USED: FRT cells, 0.1 μM forskolin
REPORTED_ENDPOINT: EC50 (µM)
Give bare numbers, in µM.

MOLECULE | ASSAY_RESULT
COc1ccc(C2CC(c3ccccc3O)=NN2c2ccc(S(N)(=O)=O)cc2)cc1OC (stereo not shown) [Compound 7c] | 10.3

Hello, I would appreciate it if you could give EC50 for each entry below.
1. COc1ccc(C2CC(c3ccccc3O)=NN2c2ccc(S(N)(=O)=O)cc2)c(OC)c1 (stereo not shown) [Compound 7b]
2. COc1ccc(C2CC(c3ccc(O)cc3O)=NN2c2ccc(S(N)(=O)=O)cc2)c(OC)c1 (stereo not shown) [Compound 7q]
3. COc1cccc(C2CC(c3ccccc3O)=NN2c2ccc(S(N)(=O)=O)cc2)c1OC (stereo not shown) [Compound 7a]

Result string:
1. 32.4
2. 0.9
3. 18.5

====

# TESTED_ON: ΔF508-CFTR (Homo sapiens, UniProt P13569, DEL508-508)
# Sequence (P13569 with tags, fused parts or gaps DEL508-508): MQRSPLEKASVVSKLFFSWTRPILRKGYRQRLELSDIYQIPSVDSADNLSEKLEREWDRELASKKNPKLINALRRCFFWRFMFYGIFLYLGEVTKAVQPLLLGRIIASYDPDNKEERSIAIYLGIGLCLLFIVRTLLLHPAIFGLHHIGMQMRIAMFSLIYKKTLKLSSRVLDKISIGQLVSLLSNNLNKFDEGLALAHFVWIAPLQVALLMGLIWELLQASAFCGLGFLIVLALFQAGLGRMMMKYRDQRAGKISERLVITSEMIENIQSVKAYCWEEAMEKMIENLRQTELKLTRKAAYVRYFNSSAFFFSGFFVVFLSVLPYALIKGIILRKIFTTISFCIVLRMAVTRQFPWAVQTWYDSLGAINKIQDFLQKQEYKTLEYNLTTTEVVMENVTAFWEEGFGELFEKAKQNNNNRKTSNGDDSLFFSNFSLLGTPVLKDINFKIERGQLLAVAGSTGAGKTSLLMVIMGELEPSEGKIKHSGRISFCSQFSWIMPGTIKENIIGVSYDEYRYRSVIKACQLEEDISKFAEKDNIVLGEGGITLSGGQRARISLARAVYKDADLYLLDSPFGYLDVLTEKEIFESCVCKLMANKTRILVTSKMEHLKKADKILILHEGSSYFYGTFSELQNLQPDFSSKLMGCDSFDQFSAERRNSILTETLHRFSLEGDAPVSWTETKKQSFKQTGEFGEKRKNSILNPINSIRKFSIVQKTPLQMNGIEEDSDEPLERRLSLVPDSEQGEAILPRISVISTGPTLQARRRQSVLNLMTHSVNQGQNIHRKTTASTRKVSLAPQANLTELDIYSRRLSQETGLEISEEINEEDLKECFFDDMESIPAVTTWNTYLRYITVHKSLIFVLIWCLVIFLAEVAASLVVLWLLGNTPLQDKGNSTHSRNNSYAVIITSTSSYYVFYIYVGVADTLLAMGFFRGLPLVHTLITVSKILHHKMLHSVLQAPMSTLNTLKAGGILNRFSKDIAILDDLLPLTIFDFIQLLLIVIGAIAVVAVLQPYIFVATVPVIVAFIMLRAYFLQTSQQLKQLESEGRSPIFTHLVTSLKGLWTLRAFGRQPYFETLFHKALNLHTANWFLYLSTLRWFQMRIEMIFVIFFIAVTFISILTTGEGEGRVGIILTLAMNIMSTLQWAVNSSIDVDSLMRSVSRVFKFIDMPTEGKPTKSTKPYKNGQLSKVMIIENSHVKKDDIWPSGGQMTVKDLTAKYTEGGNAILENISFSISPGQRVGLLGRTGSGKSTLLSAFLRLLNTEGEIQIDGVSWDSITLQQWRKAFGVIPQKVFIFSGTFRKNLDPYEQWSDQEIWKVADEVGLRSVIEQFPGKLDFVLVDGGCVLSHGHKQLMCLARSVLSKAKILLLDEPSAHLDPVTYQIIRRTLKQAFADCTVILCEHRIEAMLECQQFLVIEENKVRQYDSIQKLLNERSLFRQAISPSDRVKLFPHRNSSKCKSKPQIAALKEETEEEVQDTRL
# EXPERIMENTAL_DETAILS: Halide-sensitive YFP microplate reader assay of CFTR potentiation, ΔF508-CFTR
# Assay type: cell-based
# Parameters: expressed in transfected cells; host or cells: Fisher rat thyroid (FRT) cells, co-expressing halide sensor YFP-H148Q/I152L; provided by Dr. Alan Verkman
# CONDITIONS_USED: FRT cells rescued at 27°C, 10 μM forskolin
Would you kindly list EC50 for each of these compounds?
Numbers only, in µM.

Consider the reported EC50 for these compounds:
COMPOUND | UNIT | EC50
COc1ccc(C2CC(c3ccccc3O)=NN2c2ccc(S(N)(=O)=O)cc2)cc1OC (stereo not shown) | µM | 30.1
COc1ccc(C2CC(c3ccc(O)cc3O)=NN2c2ccc(S(N)(=O)=O)cc2)c(OC)c1 (stereo not shown) | µM | 4.8
COc1ccc(C2CC(c3ccccc3O)=NN2c2ccc(S(N)(=O)=O)cc2)c(OC)c1 (stereo not shown) | µM | 68.8

Now take the following compound into account.
Input COc1cccc(C2CC(c3ccccc3O)=NN2c2ccc(S(N)(=O)=O)cc2)c1OC (stereo not shown) . Output EC50: 45.6
